Biological target: T1, human BACE1 ECD
T1 construct: analyte of the Octet assay (200 nM) and enzyme of the first short substrate assay; also called human BACE1 extracellular domain
T1 sequence (single chain, as listed by the source limits assumed): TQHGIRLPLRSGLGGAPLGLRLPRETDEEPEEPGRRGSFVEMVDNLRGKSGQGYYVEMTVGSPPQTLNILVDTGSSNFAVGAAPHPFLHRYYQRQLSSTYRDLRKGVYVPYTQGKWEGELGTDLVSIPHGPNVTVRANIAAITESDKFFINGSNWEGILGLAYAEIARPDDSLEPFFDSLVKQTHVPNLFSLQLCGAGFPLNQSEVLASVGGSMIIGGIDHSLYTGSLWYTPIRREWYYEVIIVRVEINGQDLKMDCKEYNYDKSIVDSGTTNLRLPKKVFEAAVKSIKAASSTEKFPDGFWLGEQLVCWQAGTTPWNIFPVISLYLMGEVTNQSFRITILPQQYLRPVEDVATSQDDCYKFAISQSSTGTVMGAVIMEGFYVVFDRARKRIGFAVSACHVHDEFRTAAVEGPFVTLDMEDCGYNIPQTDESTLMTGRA
Assay: Octet, pH 7.5;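 also: antibodies captured on anti-human capture biosensor tips, dissociation followed in PBS with BSA buffer, kinetics fitted with a one-to-one binding model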
Item-by-item account of pKd
Here pKd is given on a logarithmic scale as minus log10 of the concentration in mol/L.

Known pKd results, listed for orientation:
>  <binder>
5985 (antibody, V domains shown, anti-BACE1 IgG) VH: QLQLQESGPGLVKPSETLSLTCTVSGGSISSSSYYWGWIRQPPGKGLEWIGNIYYSGSTYYNPSLKSRVTISVDTSKNQFSLKLSSVTAADTAVYYCARLGHGYNYFDLWGRGTLVTVSS VL: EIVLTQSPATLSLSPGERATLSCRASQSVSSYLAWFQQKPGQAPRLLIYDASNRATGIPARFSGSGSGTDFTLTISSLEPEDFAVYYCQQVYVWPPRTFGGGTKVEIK

>  <pKd>
9.06

$$$$
>  <binder>
5905 (antibody, V domains shown, anti-BACE1 IgG) VH: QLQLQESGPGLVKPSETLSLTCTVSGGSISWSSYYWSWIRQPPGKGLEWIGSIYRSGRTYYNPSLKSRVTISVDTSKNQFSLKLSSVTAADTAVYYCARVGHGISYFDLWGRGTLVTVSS VL: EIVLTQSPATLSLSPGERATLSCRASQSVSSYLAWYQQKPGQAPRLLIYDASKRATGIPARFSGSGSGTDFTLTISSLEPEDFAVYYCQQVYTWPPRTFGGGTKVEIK

>  <pKd>
8.89

$$$$

// moving on: another record for pKd
# pKd lookup, item 5893 (antibody, V domains shown, anti-BACE1 IgG) VH: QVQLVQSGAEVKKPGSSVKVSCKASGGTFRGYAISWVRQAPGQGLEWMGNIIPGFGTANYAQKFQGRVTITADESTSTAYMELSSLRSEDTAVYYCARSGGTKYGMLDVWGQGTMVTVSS VL: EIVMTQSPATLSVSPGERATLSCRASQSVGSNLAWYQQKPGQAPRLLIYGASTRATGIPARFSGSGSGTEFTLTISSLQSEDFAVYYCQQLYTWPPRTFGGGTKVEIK
9.48
